Overview of recorded TGI for various compounds
Tested on: 786-0 renal
protocol-details: NCI tumour cell line growth inhibition, 48 h
quantity-measured: TGI (µM)

{"compound": "COc1cc(OCc2nc3ccccc3n3cccc23)cc(OC)c1OC", "unit-annotation": "µM", "censoring-operator": ">", "value-reported": 74.3}
{"compound": "O=[N+]([O-])c1cccc(/C=N\\NS(=O)(=O)c2ccc(Cl)cc2)c1O", "unit-annotation": "µM", "censoring-operator": ">", "value-reported": 100}
{"compound": "CSc1nc(C)c2c(n1)SCC2", "unit-annotation": "µM", "censoring-operator": ">", "value-reported": 10}
{"compound": "CSc1ccc(C2=NN(C(=O)c3ccc(F)cc3)C(c3ccc(F)cc3)C2)cc1 (stereo not given)", "unit-annotation": "µM", "censoring-operator": "=", "value-reported": 30.7}
{"compound": "COC(=O)C(Cc1c[nH]c2ccccc12)N=C1Nc2ccncc2S(=O)(=O)N1c1ccccc1 (stereo not given)", "unit-annotation": "µM", "censoring-operator": ">", "value-reported": 100}
{"compound": "COc1cc2c[n+](C)c3c4cc5c(cc4ccc3c2cc1OC)OCO5", "unit-annotation": "µM", "censoring-operator": "=", "value-reported": 21.7}
{"compound": "Nc1c(C(=O)c2ccc(Cl)cc2)sc(Nc2ccccc2)c1-c1nc2ccccc2s1", "unit-annotation": "µM", "censoring-operator": "=", "value-reported": 8.18}
{"compound": "N#C/C(=C\\c1cn(Cc2ccccc2)c2ccccc12)c1nn(-c2ccccc2)c(N)c1C#N", "unit-annotation": "µM", "censoring-operator": "=", "value-reported": 21.3}
{"compound": "CN(C)C=C1C(=O)c2c(Br)sc(Br)c2C1=O", "unit-annotation": "µM", "censoring-operator": ">", "value-reported": 100}
{"compound": "CO[C@H]1c2cccc3cccc(c23)[C@@H]1n1[nH]c(=O)n(C(C)(C)C)c1=O", "unit-annotation": "µM", "censoring-operator": ">", "value-reported": 100}

---

Overview of recorded TGI for various molecules
Test system: TK-10 renal
protocol-details: NCI tumour cell line growth inhibition, 48 h
quantity-measured: TGI

{"molecule": "Cc1ccc2nc(CN3CCCC(O)C3)cc(=O)n2c1 (stereo unspecified)", "value-reported": "> 100 µM"}
{"molecule": "CN1CCC2(CC1)SC[C@H]1C(=O)N(c3ccc(Cl)cc3)C(=O)N12", "value-reported": "> 100 µM"}
{"molecule": "Nc1c(C(=O)c2ccc(Cl)cc2)sc(Nc2ccccc2)c1-c1nc2ccccc2s1", "value-reported": "> 21.4 µM"}
{"molecule": "CC[C@](O)(CC(=O)O[C@H]1C(=O)O[C@@H]2C[C@H]3C(C)=CC(=O)[C@@H](O)[C@]3(C)[C@H]3[C@@]4(O)OC[C@]32[C@@H]1[C@@H](C)[C@H]4O)C(C)C", "value-reported": "< 0.01 µM"}
{"molecule": "O=C1OC(CC(=O)c2ccc(Cl)c(Cl)c2)C(Cl)=C1Cl (stereo unspecified)", "value-reported": "> 100 µM"}
{"molecule": "CC(=O)C(=[N+]=[N-])C(=O)NCC#N", "value-reported": "> 10 µM"}
{"molecule": "CSc1nc(C)c2c(n1)SCC2", "value-reported": "> 10 µM"}
{"molecule": "Cc1oc2c(c1C)S(=O)(=O)C(C#N)=C(c1ccccc1)N2", "value-reported": "> 100 µM"}
{"molecule": "COc1ccc(OC)c2sc(N3C(=O)/C(=C/c4ccc(Cl)cc4)N=C3c3ccccc3)nc12", "value-reported": "> 100 µM"}
{"molecule": "Cc1cc(I)cc(CN(C)CCCN2CCSCC2)c1O", "value-reported": "89.3 µM"}
{"molecule": "OC(CCN1CCCCC1)(c1ccccc1)c1ccccc1", "value-reported": "> 100 µM"}
{"molecule": "CCOC(=O)C(SCCO)C(C(=O)OCC)n1cnc2c(N)ncnc21 (stereo unspecified)", "value-reported": "28.3 µM"}
{"molecule": "Cc1ccc(-n2cnc3c(N)nc(N)nc32)cc1", "value-reported": "> 100 µM"}
{"molecule": "O=c1ccn(C2OC(CO)C(O)C2F)c(=O)[nH]1 (stereo unspecified)", "value-reported": "> 1000 µM"}
{"molecule": "CC(=O)Oc1cc2c(n(C)c1=O)-c1ccccc1C2", "value-reported": "> 100 µM"}
{"molecule": "CCN(CC)C1Oc2cc3c(cc2C(c2ccc(OC)cc2)C1C)OCO3 (stereo unspecified)", "value-reported": "56.2 µM"}
{"molecule": "NC(=O)C(=Cc1ccc(C(O)P(=O)(O)O)cc1)C(N)=O (stereo unspecified)", "value-reported": "> 100 µM"}
{"molecule": "CC(=O)O[C@H]1CC[C@H]2[C@@H]3CCC4C(C)=NNC(=O)C4[C@H]3CC[C@]12C (stereo partly specified)", "value-reported": "> 100 µM"}
{"molecule": "COc1ccc([N+]2=NC(c3ccc([N+](=O)[O-])cc3)=NN(c3ccccc3)C2)cc1", "value-reported": "> 100 µM"}
{"molecule": "COc1ccccc1N1C(=O)/C(=C/c2ccc(N(CCC#N)CCC#N)cc2C)N=C1c1cc([N+](=O)[O-])ccc1Cl", "value-reported": "> 100 µM"}
{"molecule": "O=[n+]1c2ccccc2n([O-])c2ccccc21", "value-reported": "> 100 µM"}
{"molecule": "CC(=O)Nc1ccc(C(=O)NN2C(=O)C(Cl)C2c2ccc(Cl)cc2)cc1 (stereo unspecified)", "value-reported": "> 100 µM"}
{"molecule": "CC(C)(C)O/C=C1/C(=O)OC2C[C@@H](O[Si](C)(C)C(C)(C)C)CC12 (stereo partly specified)", "value-reported": "> 100 µM"}
{"molecule": "CCOC(=O)c1cc(C#N)c(=O)n(/N=C(\\C)c2ccncc2)c1O", "value-reported": "> 100 µM"}
{"molecule": "CCC1(CC)C(=O)OC(=O)C1(CC)CC", "value-reported": "> 100 µM"}
{"molecule": "COC1CC(C)C(OC)C2=CC(=O)C=C(NC(=O)/C(C)=C/C=C\\C(C)C(OC(N)=O)/C(C)=C\\C(C)C1OC)C2=O (stereo unspecified)", "value-reported": "9.81 µM"}
{"molecule": "NNC(=O)/C(=C/c1ccc(Cl)c(Cl)c1)NC(=O)c1ccccc1", "value-reported": "> 100 µM"}
{"molecule": "C=C1C(=O)C23CC1C[C@H](OC(C)=O)[C@H]2C1(C)C(OC(C)=O)C[C@H](O)C(C)(C)[C@H]1C(=O)[C@@H]3OC(C)=O (stereo partly specified)", "value-reported": "5.82 µM"}
{"molecule": "COc1c2nc(CCl)[nH]c(=O)c2c(OC)c2nc(CCl)[nH]c(=O)c12", "value-reported": "> 100 µM"}
{"molecule": "O=S(=O)(NC1=NCCN1C(=S)SN1CCn2c1nsc2=S)c1ccc(Br)cc1", "value-reported": "83.5 µM"}
{"molecule": "CCN(CC)CSc1nc2ccccc2o1", "value-reported": "> 100 µM"}
{"molecule": "O=C1c2ccccc2-c2c1c1ccccc1c(=O)n2CCCNCCCn1ccnc1", "value-reported": "9.73 µM"}
{"molecule": "CC1=C2[C@@H](CC1)[C@]1(C)O[C@@](C3CCCCC3)(C[C@H]1OC(=O)CO)[C@H]2OC(=O)/C=C/c1ccccc1", "value-reported": "26.5 µM"}
{"molecule": "CC(C)=CCC[C@@H](C)C1=C(O)C(O)C(C)=C2N=C(c3ccccc3)C(=O)OC21 (stereo partly specified)", "value-reported": "> 25 µM"}
{"molecule": "C=C1C(=O)O[C@H]2[C@H]1CC/C(CNC(=O)c1cc3cc(OC)ccc3[nH]1)=C\\CC[C@@]1(C)O[C@@H]21", "value-reported": "4.61 µM"}
{"molecule": "O=C1NC(=O)C(Cc2ccccc2)(c2cccnc2)N1 (stereo unspecified)", "value-reported": "> 100 µM"}
{"molecule": "N#CC(C#N)N=Cc1ccncc1", "value-reported": "> 100 µM"}
{"molecule": "C=C1C(=O)OC2/C=C(\\CO)C3OC3C3OC3(C)CC(OC(=O)/C(=C/C)CO)C12 (stereo unspecified)", "value-reported": "> 100 µM"}
{"molecule": "Cc1ccccc1NC(=O)N/C(N)=N/c1nc(-c2cccc([N+](=O)[O-])c2)cs1", "value-reported": "14.6 µM"}
{"molecule": "CCOC(=O)CCC(NC(=O)c1ccc(CNc2nc3ccccc3nc2C(=O)OCC)cc1)C(=O)OCC (stereo unspecified)", "value-reported": "> 100 µM"}
{"molecule": "N#C/C(=C\\c1cn(Cc2ccccc2)c2ccccc12)c1nn(-c2ccccc2)c(N)c1C#N", "value-reported": "35.8 µM"}
